Where these numbers come from: paper PMC12529881

- Target or test system: human UDP‐GlcNAc 2‐epimerase (GNE) (Homo sapiens, UniProt Q9Y223)
- Construct: The MNK subunit connects to the C‐terminus of the GNE subunit; made in house; host or cells: Escherichia coli BL21 (DE3)
- Method description: Mass photometry affinity measurements of GNE subunits / substrate titration
- Format: binding
- Conditions: from tetramer curve, substrate titration against 800 nM GNE, Equation S2; read-out: substrate affinity K S
Test readout: pKd
Scale note: pKd = -log10(concentration in M).

Value (pKd, human UDP‐GlcNAc 2‐epimerase (GNE) (Homo sapiens, UniProt Q9Y223)) for record CC(=O)N[C@H]1[C@@H](OP(=O)([O-])OP(=O)([O-])OC[C@H]2O[C@@H](n3ccc(=O)[nH]c3=O)[C@H](O)[C@@H]2O)O[C@H](CO)[C@@H](O)[C@@H]1O.[Na+].[Na+] [UDP‐GlcNAc] = 4.46

* * *

- Target or test system: human UDP‐GlcNAc 2‐epimerase (GNE) (Homo sapiens, UniProt Q9Y223)
- Construct: The MNK subunit connects to the C‐terminus of the GNE subunit; made in house; host or cells: Escherichia coli BL21 (DE3)
- Sequence (Q9Y223 1-405 limits assumed): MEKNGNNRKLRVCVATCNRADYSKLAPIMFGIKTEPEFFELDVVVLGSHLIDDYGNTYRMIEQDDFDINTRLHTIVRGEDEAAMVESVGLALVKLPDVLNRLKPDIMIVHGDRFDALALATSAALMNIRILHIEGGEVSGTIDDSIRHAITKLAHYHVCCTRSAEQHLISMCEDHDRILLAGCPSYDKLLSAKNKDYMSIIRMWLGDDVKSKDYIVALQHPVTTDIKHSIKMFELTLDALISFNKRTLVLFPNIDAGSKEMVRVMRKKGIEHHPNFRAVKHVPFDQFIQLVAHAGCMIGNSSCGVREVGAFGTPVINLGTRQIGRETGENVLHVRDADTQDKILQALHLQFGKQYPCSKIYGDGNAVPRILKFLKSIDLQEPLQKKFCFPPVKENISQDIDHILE
- Method description: Mass photometry affinity measurements of GNE subunits / substrate titration
- Assay type: binding
- Conditions: presence of 100 μM UDP‐GlcNAc, fit Equation S1; read-out: K D ^S (D:D), GNE dimer–dimer interaction
Test readout: Kd (nM)
Kindly provide the numeric value in nM only, without the unit symbol.

Entry under test: `CC(=O)N[C@H]1[C@@H](OP(=O)([O-])OP(=O)([O-])OC[C@H]2O[C@@H](n3ccc(=O)[nH]c3=O)[C@H](O)[C@@H]2O)O[C@H](CO)[C@@H](O)[C@@H]1O.[Na+].[Na+]` . Its Kd was 98.1

* * *

- Target or test system: human UDP‐GlcNAc 2‐epimerase (GNE) (Homo sapiens)
- Construct: The MNK subunit connects to the C‐terminus of the GNE subunit; made in house; host or cells: Escherichia coli BL21 (DE3)
- Method description: Mass photometry Schild experiments and OMAM global fit (GNE tetramer inhibition by C15)
- Format: binding
- Conditions: OMAM global fit (Equation S6); read-out: inhibitor affinity K B
Test readout: pKd
Keep in mind that pKd stands for -log10 of concentration in molar terms.

Form field pKd, entry `COc1c(Br)cc(Br)cc1/C=C/c1cc(C(F)(F)F)[nH]c(=O)n1` : 7.60

* * *

- Target or test system: human UDP‐GlcNAc 2‐epimerase (GNE) (Homo sapiens)
- Construct: The MNK subunit connects to the C‐terminus of the GNE subunit; made in house; host or cells: Escherichia coli BL21 (DE3)
- Method description: Mass photometry affinity measurements of GNE subunits / substrate titration
- Assay type: binding
- Conditions: presence of 100 μM UDP‐GlcNAc, fit Equation S1; read-out: K D ^S (M:M), GNE monomer–monomer interaction
Test readout: pKd
pKd field: float, defined as -log10 of concentration (mol/L).

// pKd value for `CC(=O)N[C@H]1[C@@H](OP(=O)([O-])OP(=O)([O-])OC[C@H]2O[C@@H](n3ccc(=O)[nH]c3=O)[C@H](O)[C@@H]2O)O[C@H](CO)[C@@H](O)[C@@H]1O.[Na+].[Na+]` : 7.43

* * *

- Target or test system: human UDP‐GlcNAc 2‐epimerase (GNE) (Homo sapiens, UniProt Q9Y223)
- Construct: The MNK subunit connects to the C‐terminus of the GNE subunit; made in house; host or cells: Escherichia coli BL21 (DE3)
- Method description: Mass photometry GNE assembly inhibition (inhibitor titration against 800 nM GNE)
- Format: biochemical
- Conditions: 800 nM GNE, 100 μM UDP‐GlcNAc, DPBS pH 7.4, 20°C, Hill n fixed 1.3; read-out: IC50 ^S (T), GNE tetramer destabilization
Test readout: pIC50
Remember the convention: pIC50 equals -log10 of concentration in molar.

- Compound string: "O=c1nc(/C=C/c2cc([N+](=O)[O-])ccc2Cl)cc(C(F)(F)F)[nH]1"
  pIC50: 4.71

Now look at this entry.
Just so you know, measured pIC50 for `COc1c(Br)cc(Br)cc1/C=C/c1cc(C(F)(F)F)[nH]c(=O)n1` came out at 5.51

* * *

- Target or test system: human UDP‐GlcNAc 2‐epimerase (GNE) (Homo sapiens, UniProt Q9Y223)
- Construct: The MNK subunit connects to the C‐terminus of the GNE subunit; made in house; host or cells: Escherichia coli BL21 (DE3)
- Method description: Mass photometry affinity measurements of GNE subunits / substrate titration
- Assay type: binding
- Conditions: presence of 100 μM UDP‐GlcNAc, mean calculated by law of mass action; read-out: K D ^S Calc.(D:D)
Test readout: pKd
// returns pKd (minus log10 of molar concentration), number only

get_value(item= `CC(=O)N[C@H]1[C@@H](OP(=O)([O-])OP(=O)([O-])OC[C@H]2O[C@@H](n3ccc(=O)[nH]c3=O)[C@H](O)[C@@H]2O)O[C@H](CO)[C@@H](O)[C@@H]1O.[Na+].[Na+]` , readout=pKd) returns 6.66

* * *

- Target or test system: human UDP‐GlcNAc 2‐epimerase (GNE) (Homo sapiens)
- Construct: The MNK subunit connects to the C‐terminus of the GNE subunit
- Sequence (Q9Y223 1-405 limits assumed): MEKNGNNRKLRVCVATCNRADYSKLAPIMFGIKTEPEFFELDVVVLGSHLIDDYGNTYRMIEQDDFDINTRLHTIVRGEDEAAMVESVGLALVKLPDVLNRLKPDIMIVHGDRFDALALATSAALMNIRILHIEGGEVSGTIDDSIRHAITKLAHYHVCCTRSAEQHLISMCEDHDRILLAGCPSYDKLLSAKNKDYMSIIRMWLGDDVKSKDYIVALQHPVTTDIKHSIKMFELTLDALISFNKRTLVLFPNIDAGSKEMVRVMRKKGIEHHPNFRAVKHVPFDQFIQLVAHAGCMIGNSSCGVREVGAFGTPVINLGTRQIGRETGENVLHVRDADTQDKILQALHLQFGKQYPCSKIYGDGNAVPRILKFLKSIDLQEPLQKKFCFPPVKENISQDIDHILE
- Method description: Mass photometry GNE assembly inhibition (inhibitor titration against 800 nM GNE)
- Conditions: from IC50 ^S (T) by modified Cheng–Prusoff equation (Equation S4); 100 μM UDP‐GlcNAc; read-out: K i ^S (T)
# Ki values compiled below
# number only, unit µM dropped from output

- Compound: "O=c1nc(/C=C/c2cc([N+](=O)[O-])ccc2Cl)cc(C(F)(F)F)[nH]1 [C13]"
  Ki (µM): 0.508

Field: next compound
Measured Ki of COc1c(Br)cc(Br)cc1/C=C/c1cc(C(F)(F)F)[nH]c(=O)n1 [C15] : 0.0826
